Tested system: recombinant Vps34 (Homo sapiens)
Sequence (Q8NEB9 whole entry): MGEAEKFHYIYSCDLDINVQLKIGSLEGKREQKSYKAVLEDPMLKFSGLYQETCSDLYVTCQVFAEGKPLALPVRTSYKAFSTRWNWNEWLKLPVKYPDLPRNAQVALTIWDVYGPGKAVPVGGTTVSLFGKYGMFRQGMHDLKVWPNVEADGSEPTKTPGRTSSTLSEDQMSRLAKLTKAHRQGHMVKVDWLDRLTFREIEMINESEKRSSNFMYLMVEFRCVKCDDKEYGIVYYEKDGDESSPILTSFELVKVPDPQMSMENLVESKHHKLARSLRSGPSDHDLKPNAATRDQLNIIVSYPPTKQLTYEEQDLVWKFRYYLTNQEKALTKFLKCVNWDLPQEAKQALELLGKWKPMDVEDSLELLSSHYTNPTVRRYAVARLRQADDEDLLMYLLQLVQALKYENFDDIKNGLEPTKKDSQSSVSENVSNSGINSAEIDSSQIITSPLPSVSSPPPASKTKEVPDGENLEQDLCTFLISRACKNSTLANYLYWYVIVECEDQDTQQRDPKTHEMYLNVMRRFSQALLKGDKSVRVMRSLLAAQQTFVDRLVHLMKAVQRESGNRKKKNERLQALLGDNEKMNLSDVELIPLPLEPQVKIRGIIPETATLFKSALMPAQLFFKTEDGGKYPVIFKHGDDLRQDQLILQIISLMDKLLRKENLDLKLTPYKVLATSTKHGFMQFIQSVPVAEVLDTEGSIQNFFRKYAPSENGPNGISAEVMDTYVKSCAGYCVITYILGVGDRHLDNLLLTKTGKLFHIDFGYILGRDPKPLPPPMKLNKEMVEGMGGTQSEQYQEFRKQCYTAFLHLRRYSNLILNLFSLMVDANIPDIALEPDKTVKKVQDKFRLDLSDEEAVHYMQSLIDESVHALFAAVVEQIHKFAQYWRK
Assay summary: Phosphorylation of phosphatidylinositol (PI) by Vps34 in vitro, ADP detected by TR-FRET (HTRF Transcreener ADP)
Condition: 10 μM ATP, 55 μg/ml PI, approximately 3 nM Vps34, 1 hour at ambient temperature; absolute IC50, mean of two independent experiments; read-out: IC50 activity range
Experimental readout: IC50

                                    molecule  observed_result
 0  CCC(C)N1c2nc(N3CCOC[C@H]3C)cc(=O)n2CC[C@H]1C(F)(F)F (single isomer, unassigned)          < 10 nM
 1  C[C@@H]1COCCN1c1cc(=O)n2c(n1)N(c1ccc(C3CC3)nc1)CC[C@@H]2C(F)(F)F          < 10 nM
 2  COC(=O)CN1c2nc(N3CCOC[C@H]3C)c(F)c(=O)n2CC[C@H]1C(F)(F)F          < 10 nM
 3  C[C@@H]1COCCN1c1cc(=O)n2c(n1)N(CC(=O)N1CCCCC1)[C@H](C(F)(F)F)CC2          < 10 nM
 4  CC(C)C(=O)CN1CC[C@H](C(F)(F)F)n2c1nc(N1CCOC[C@H]1C)c(F)c2=O          < 10 nM
 5  C[C@@H]1COCCN1c1nc2n(c(=O)c1F)CC[C@@H](C(F)(F)F)N2Cc1cnco1          < 10 nM
 6  O=c1cc(N2CCOC(CF)C2)nc2n1CC[C@@H](C(F)(F)F)N2Cc1ccccc1 (stereo partly drawn) [Example 193]         > 100 nM
 7  C[C@@H]1COCCN1c1cc(=O)n2c(n1)N(Cc1ccnc(F)c1)[C@H](C(F)(F)F)CC2          < 10 nM
 8  C[C@@H]1COC[C@@H](C)N1c1cc(=O)n2c(n1)N(Cc1ccon1)[C@H](C(F)(F)F)CC2          < 10 nM
 9  C[C@@H]1COCCN1c1cc(=O)n2c(n1)N(Cc1ccnc(Cl)c1)[C@H](C(F)(F)F)CC2          < 10 nM
10  O=C(CN1c2nc(N3CC4CCC(C3)O4)cc(=O)n2CC[C@H]1C(F)(F)F)c1ccccc1          < 10 nM
11  C[C@@H]1COCCN1c1cc(=O)n2c(n1)N(Cc1ccon1)[C@H](C(F)(F)F)CC2          < 10 nM
12  C[C@@H]1COCCN1c1cc(=O)n2c(n1)N(CC(=O)C1CCCCC1)[C@H](C(F)(F)F)CC2          < 10 nM
13  C[C@@H]1COCCN1c1cc(=O)n2c(n1)N(CC(=O)c1ccccn1)[C@](C)(C(F)(F)F)C2          < 10 nM
14  Cc1nc(CN2c3nc(N4CCOC[C@H]4C)cc(=O)n3CC[C@H]2C(F)(F)F)c(C)o1          < 10 nM
15  C[C@@H]1COCCN1c1cc(=O)n2c(n1)N(CC(O)c1ccccn1)[C@H](C(F)(F)F)CC2 (stereo partly drawn) [Example 213]          < 10 nM
16  CC(C)C(=O)CN1c2nc(N3CC4CCC(C3)O4)cc(=O)n2CC[C@H]1C(F)(F)F         > 100 nM
17  C[C@@H]1COCCN1c1nc2n(c(=O)c1F)CC[C@@H](C(F)(F)F)N2CCOCC(F)(F)F          < 10 nM
18  CC(C)CCC(=O)CN1c2nc(N3CCOC[C@H]3C)cc(=O)n2CC[C@H]1C(F)(F)F          < 10 nM
19  CC(C)C(=O)CN1c2nc(N3CC4CCC(C3)O4)c(F)c(=O)n2CC[C@H]1C(F)(F)F     10 to 100 nM
20  C[C@@H]1COCCN1c1nc2n(c(=O)c1F)CC[C@@H](C(F)(F)F)N2CC(F)C1CC1 (single isomer, unassigned)          < 10 nM
21  C[C@@H]1COCCN1c1cc(=O)n2c(n1)N(CC(=O)c1cccnc1)CC[C@@H]2C(F)(F)F          < 10 nM
22  C[C@@H]1COCCN1c1cc(=O)n2c(n1)N(c1ccnc(Cl)c1)CC[C@@H]2C(F)(F)F          < 10 nM
23  O=C(CN1c2nc(N3CC4CCC(C3)O4)c(F)c(=O)n2CC[C@H]1C(F)(F)F)C1CC1     10 to 100 nM
24  Cc1nnsc1CN1c2nc(N3CCOC[C@H]3C)cc(=O)n2CC[C@H]1C(F)(F)F     10 to 100 nM
25  C[C@@H]1COCCN1c1nc2n(c(=O)c1F)CC[C@@H](C(F)(F)F)N2CC(C)(C)O          < 10 nM
26  C[C@@H]1COCCN1c1cc(=O)n2c(n1)N(Cc1cccnc1)[C@H](C(F)(F)F)CC2          < 10 nM
27  C[C@@H]1COCCN1c1cc(=O)n2c(n1)N(CC(=O)C1CCOCC1)CC[C@@H]2C(F)(F)F          < 10 nM
28  C[C@@H]1COCCN1c1cc(=O)n2c(n1)N(CC(=O)OC(C)(C)C)[C@H](C(F)(F)F)CC2          < 10 nM
29  O=c1cc(N2CC3CCC(C2)O3)nc2n1CC[C@@H](C(F)(F)F)N2Cc1cnc(Cl)s1     10 to 100 nM
